Value source: ChEMBL document CHEMBL3217456

# assayed.target: Histamine H2 receptor (Homo sapiens, UniProt P25021)
# Sequence (P25021 whole entry, the tested form may be a part): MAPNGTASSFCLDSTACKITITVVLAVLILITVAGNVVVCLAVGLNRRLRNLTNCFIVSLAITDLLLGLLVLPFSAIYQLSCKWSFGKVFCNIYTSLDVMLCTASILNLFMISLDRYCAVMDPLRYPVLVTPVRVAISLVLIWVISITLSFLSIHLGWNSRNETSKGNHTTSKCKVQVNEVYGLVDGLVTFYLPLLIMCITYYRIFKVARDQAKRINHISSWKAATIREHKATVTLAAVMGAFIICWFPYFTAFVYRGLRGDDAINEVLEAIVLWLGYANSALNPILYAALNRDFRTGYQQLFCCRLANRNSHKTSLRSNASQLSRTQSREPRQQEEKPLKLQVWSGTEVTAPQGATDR
# assay.name: Antagonist activity at human recombinant histamine H2 receptor-Gsalphas fusion protein expressed in Sf9 cells assessed as inhibition of histamine-induced […] hydrolysis preincubated for 2 mins before [gamma32P]GTP addition measured after 20 mins by steady-state GTPase activity assay
# Assay type: functional
Documented pKb across a set of compounds

{"columns": ["compound", "assayed.target", "comparator", "pKb"],
 "data": [
  ["CC(CC(=O)/N=C(\\N)NCCCc1ncc[nH]1)c1cccs1 (configuration not stated)", "Histamine H2 receptor (Homo sapiens, UniProt P25021)", "=", 5.26],
  ["N/C(=N\\C(=O)CC(c1ccccc1)c1nccs1)NCCCc1ncc[nH]1 (configuration not stated)", "Histamine H2 receptor (Homo sapiens, UniProt P25021)", "=", 5.19],
  ["CC(CC(=O)/N=C(\\N)NCCCc1ccc(CN(C)C)o1)c1cccs1 (configuration not stated)", "Histamine H2 receptor (Homo sapiens, UniProt P25021)", "=", 6.51],
  ["CC(CC(=O)/N=C(\\N)NCCCn1ccnc1)c1ccccc1 (configuration not stated)", "Histamine H2 receptor (Homo sapiens, UniProt P25021)", "<", 5],
  ["N/C(=N\\C(=O)CC(c1ccccc1)c1ccccc1)NCCCc1ccccn1", "Histamine H2 receptor (Homo sapiens, UniProt P25021)", "=", 5.68],
  ["CN(C)Cc1ccc(CCCN/C(N)=N/C(=O)CC(c2ccccc2)c2ccccc2)o1", "Histamine H2 receptor (Homo sapiens, UniProt P25021)", "=", 7.03],
  ["N/C(=N\\C(=O)CC(c1ccccc1)c1ccccc1)NCCCc1ccncc1", "Histamine H2 receptor (Homo sapiens, UniProt P25021)", "=", 6.14]
]}
